Quick reference: yeast fitness of the listed items.
B1: tRNA (parent)
chain: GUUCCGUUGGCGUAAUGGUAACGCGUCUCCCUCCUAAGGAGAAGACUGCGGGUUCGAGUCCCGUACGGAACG

variants of: B1; test: yeast fitness relative to wild type (ratio to wild type); higher = fitter; tRNA-Arg(CCU), competitive growth, 37 C, YPD
Fewer inactive variants are shown than the library holds.
Answer with the value's number alone.

- Variant Designation: "U7C G10A C30G A37C"
  Reported Endpoint: "yeast fitness"
  Value Observed: 0.554

# evaluate next
yeast fitness lookup needed for C31U C46A A70C , thanks. 0.771

// provenance: the RNAGym collection of RNA variant scans (doi:10.1126/science.aae0568)
